Recorded IC50, one value per entry.
# Test system: gel-filtered platelets
# protocol: In vitro inhibition of thrombin-induced gel-filtered platelet aggregation
# Format: cell-based
# experimental conditions: Platelet; human gel-filtered platelets; agonist thrombin 50 μL of 1 unit/mL; read-out: Thrmb IC50 (Thrombin-induced aggregation of gel-filtered platelets)
Supply the numeric figure in µM, leaving out any unit text.

NCC[C@H](NC(=O)[C@H](CC1CCCCC1)NC(=O)Nc1ccc2c(CN3CCCC3)cn(Cc3c(Cl)cccc3Cl)c2c1)C(=O)NCc1ccccc1
11
COc1ccc(C[C@H](NC(=O)Nc2ccc3c(CN4CCCCC4)cn(Cc4ccc(F)cc4)c3c2)C(=O)N[C@@H](CCCNC(=N)N)C(=O)NCC2CCCCC2)cc1
8
Cc1ccccc1Cn1cc(CN2CCCC2)c2ccc(NC(=O)N[C@@H](Cc3ccc(F)c(F)c3)C(=O)N[C@@H](CCCNC(=N)N)C(=O)NCCc3ccccc3)cc21
1.8
N#Cc1ccc(C[C@H](NC(=O)Nc2ccc3c(CN4CCCC4)cn(Cc4c(Cl)cccc4Cl)c3c2)C(=O)N[C@@H](CCCNC(=N)N)C(=O)NCc2ccccc2)cc1
0.48

The reported value for CCN(CC)Cc1cn(Cc2ccccc2C)c2cc(NC(=O)N[C@@H](Cc3ccc(N)cc3)C(=O)N[C@@H](CCCNC(=N)N)C(=O)NCc3ccccc3)ccc12 in terms of IC50 is 13
